- STUDY_TARGET: Ryanodine receptor 2 (Mus musculus)
- TEST_DETAILS: Displacement of [3H]ryanodine from ryanodine receptor(ryr) of Mouse brain
The entries below come with measured Relative activity values attached.

MOLECULE	Relative activity
CC(C)C1(O)C(OC(=O)c2ccc[nH]2)C2(O)C3(C)CC4(O)OC5(CCCCC35O)C2(O)C41C (stereo not given)	18
C=C1CCC2(O)C3(C)CC4(O)OC2(C1OC(=O)c1ccccc1)C1(O)C3(O)C(OC(=O)c2ccc[nH]2)C(O)(C(C)C)C41C (stereo not given)	17
CO/N=C1\C(C)CCC2(O)C3(C)CC4(O)OC12C1(O)C3(O)C(OC(=O)c2ccc[nH]2)C(O)(C(C)C)C41C (stereo not given)	13
CC(C)C1(O)C(OC(=O)c2ccc[nH]2)C2(O)C3(C)CC4(O)OC5(CC(O)CCC35O)C2(O)C41C (stereo not given)	0.4
CC1CCC2(O)C3(C)CC4(O)OC2(C1N)C1(O)C3(O)C(OC(=O)c2ccc[nH]2)C(O)(C(C)C)C41C (stereo not given)	65
